# Procedure Details: reduction of polyQ htt aggregates in cells – imaging, exon1htt(103Q)mCFP cells, high-content imaging, primary screen (AID 483);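 note: compound exposure lasted 3 days before fixation; percent of the per-plate median nuclei count of sample wells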
# Assay Context: exon1htt(103Q)mCFP cell line, aggregate imaging, at 2 µM; measured here: cell count, toxicity
The entries below are paired with their reported nuclei count.
Assay Endpoint: nuclei count (%)

1. CCOc1ccc2cc(C#N)c(SCC(=O)N3CCOCC3)nc2c1 ... 97.9
2. CCOC(=O)c1nnn(CC(=O)Nc2cccc(OC)c2)c1C(=O)OCC ... 89
3. CCOC(=O)CSc1nc2cc(C(=O)NCc3ccco3)ccc2c(=O)n1-c1ccc(F)cc1 ... 104
4. COCCCNC(=O)CCc1nc(-c2ccccc2Cl)no1 ... 95.7
5. Cc1ccc(N2CC(C(=O)Nc3ccc4c(c3)OCO4)CC2=O)cc1 (stereo unspecified) ... 110
6. COc1cccc(CNc2cccc3cccnc23)c1O ... 79.7
7. O=C(COC(=O)c1ccco1)NCc1cccs1 ... 93.5
8. O=C1NC(=O)C(c2ccccc2)(c2ccccc2)N1 ... 101
9. CCCn1c(SCC(=O)Nc2cc(C)on2)nc2c1c(=O)n(C)c(=O)n2C ... 95.2
10. O=C(NCc1ccccc1)N1CCn2c(nc3ccccc32)C1 ... 99.6
11. COc1ccc(OCc2nc(N)nc(Nc3cccc(C)c3C)n2)cc1 ... 102

====

# Procedure Details: inhibitors of TNFa-induced NFkB p65 translocation, primary screen, imaging, HUVEC, MLSMR starter and 10KST1 sets (AID 438);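 note: compound added about 3h40 before a 20 min TNFalpha stimulation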
# Assay Context: HUVEC TNFa-induced p65 nuclear translocation; measured here: nuclei count (cytotoxicity indicator), at 2.08 µM
Assay Endpoint: cell count

1) CCOC(=O)CC1(CC(=O)OCC)NC(=O)c2c(C)sc(C(=O)OCC)c2N1 ... 704
2) O=C(Nc1ccccc1)c1ccc(NCC2CCCO2)c(S(=O)(=O)N2CCOCC2)c1 (stereo unspecified) ... 637
3) COc1ccc(OC)c(N(CC(=O)N2CCN(c3cc(Cl)ccc3C)CC2)S(C)(=O)=O)c1 ... 497
4) Cc1ccc(NC(=O)CSc2nnc(NC(=O)CN3CCOCC3)s2)cc1 ... 294
5) CN(c1cccc(NS(=O)(=O)c2cccs2)c1)S(C)(=O)=O ... 427
6) COc1cccc(-c2cc(C(=O)Nc3cc(OC)c(OC)c(OC)c3)no2)c1 ... 461
7) COc1ccc(NC(=O)Nc2cc(C)ccc2OC)cc1 ... 217
8) COc1ccccc1N1CCN(CCCNC(=O)Nc2ccccc2)CC1 ... 377
9) Cc1nn(-c2ccc(F)cc2)c2sc(C(=O)OCC(=O)N3CCC(C)CC3)cc12 ... 359
10) CCOC(=O)COc1ccc(S(=O)(=O)N2CCc3ccccc3C2)cc1 ... 447
11) Cc1ncoc1C(=O)Nc1ccccc1C(N)=O ... 408
12) COc1ccc2c(C(=O)CN(C)C3CCCCC3)c[nH]c2c1 ... 533
13) CCCS(=O)(=O)N1CCCC(C(=O)N2CCC(Cc3ccccc3)CC2)C1 (stereo unspecified) ... 662
14) COC(=O)c1nc2n(n1)C(c1ccc(OC)c(OC)c1)C(C(=O)OC1CCCCC1)=C(C)N2 (stereo unspecified) ... 603
15) COCCN1CN(S(=O)(=O)c2ccccc2)c2nc3ccccc3nc21 ... 307
16) CCN1CCN(C(=O)c2ccc3c(=O)n(CCC4=CCCCC4)c(=O)[nH]c3c2)CC1 ... 465
17) COc1cccc2c(=O)c3c(cnn3C)n(C)c12 ... 279
18) O=C(CNS(=O)(=O)c1ccc(Br)s1)N1CCCC1 ... 367
19) O=c1c2ccccc2nc(-c2cccc(Cl)c2)n1O ... 333
20) COc1ccc(-n2c(SCC(=O)Nc3ccc(C(=O)O)cc3)nnc2-c2cccs2)cc1 ... 443
21) CSc1cccc(NC(=O)C2CCN(S(C)(=O)=O)CC2)c1 ... 248
22) COc1cc(CC(=O)Nc2ncc(C)s2)cc(OC)c1OC ... 524
23) Clc1cccc(-c2nn3c(Cn4cnc5ccccc54)nnc3s2)c1 ... 581
24) Cc1ccc(C)c(C(=O)NC2CC(C)(C)NC(C)(C)C2)c1 ... 690
25) CCS(=O)(=O)N1CCC(C(=O)NC2CCCCC2)CC1 ... 572
26) Cc1ccc(Cn2c(SCC(C)C)nc3c2c(=O)n(C)c(=O)n3C)cc1 ... 468
27) Cc1cc2ncn(N)c2cc1C ... 711
28) O=C(N1CCCCCC1)N1CCN(C(=O)N2CCOCC2)CC1 ... 437
29) Nc1c(Sc2ccccc2)c(=O)[nH]c(=O)n1Cc1ccccc1 ... 254
30) O=C(CN(c1ccccc1)S(=O)(=O)c1ccccc1)N1CCN(Cc2ccc3c(c2)OCO3)CC1 ... 372
31) CCn1c(SCC(=O)Nc2nnc(C)s2)nnc1-c1ccncc1 ... 554
32) CCC(C)n1[nH]c(=O)c2c(C)cc(C)nc21 (stereo unspecified) ... 405
33) CN(CC(=O)N1CCN(C2CCCCC2)CC1)S(=O)(=O)c1cccc2nsnc12 ... 367
34) CCOC(=O)c1cnn(-c2ncnc3c2cnn3Cc2ccccc2)c1N ... 410
35) S=c1nc(C2CC2)[nH]c2ccccc12 ... 469
36) COC(=O)c1[nH]c2ccccc2c1NS(=O)(=O)c1ccc(OC)cc1OC ... 655
37) COCCCn1c(SCC(=O)N2CCc3ccccc32)nnc1-c1ccoc1C ... 238
38) O=C(O)C1CC(=O)N(c2ccc(OCc3c(F)cccc3Cl)cc2)C1 (stereo unspecified) ... 571
39) CS(=O)(=O)N(CC(=O)N1CCCCCC1)c1ccccc1 ... 324
40) COC(=O)c1cccc(S(=O)(=O)N2CCN(c3nc4ccccc4s3)CC2)c1 ... 299
41) CCc1ccc2nc(NC(=O)CSCc3c(C)noc3C)sc2c1 ... 416
42) Cc1nc2ccc(NC(=O)N3CCOCC3)cc2s1 ... 416
43) Cc1cccc(N2CCN(S(=O)(=O)c3ccc4c(c3)CCC(=O)N4)CC2C)c1 (stereo unspecified) ... 322
44) CCOCCCNC(=O)C1CCN(C(=O)Nc2ccc(Cl)cc2)CC1 ... 437
45) CCCC(=O)N=C1SC2CS(=O)(=O)CC2N1c1ccc(CC)cc1 (stereo unspecified) ... 286
46) CNC(=O)Nc1cccc(C(F)(F)F)c1 ... 299

====

# Test Target: Dual specificity protein phosphatase 6 (Homo sapiens) (UniProt Q16828)
# Sequence (Q16828 whole entry, looked up): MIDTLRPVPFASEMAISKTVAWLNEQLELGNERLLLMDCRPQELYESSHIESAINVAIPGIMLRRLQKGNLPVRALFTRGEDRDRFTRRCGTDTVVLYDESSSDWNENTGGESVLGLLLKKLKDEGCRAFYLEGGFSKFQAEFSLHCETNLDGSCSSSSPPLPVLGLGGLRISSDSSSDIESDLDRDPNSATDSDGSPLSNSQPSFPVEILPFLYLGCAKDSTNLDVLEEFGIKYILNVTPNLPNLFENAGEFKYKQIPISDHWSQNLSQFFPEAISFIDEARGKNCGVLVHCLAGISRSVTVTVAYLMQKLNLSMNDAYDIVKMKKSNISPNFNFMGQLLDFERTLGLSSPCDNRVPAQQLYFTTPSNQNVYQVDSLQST
# Procedure Details: Primary imaging screen for DUSP6 inhibitors that restore phospho-Erk in transfected HeLa cells, chemical complementation (AID 609);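 note: phospho-Erk level distribution per well compared with pooled transfected vehicle control wells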
# Assay Context: HeLa MKP-3 transfected, phospho-Erk imaging KS statistic; at 10 µM; stronger effect = higher value; cells stimulated with TPA for 15 min
Activity calls are given as the source filed them.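 Rule for the calls: active = compounds giving at least 50% inhibition in the cell-based MKP-3 phosphatase rescue imaging test; inactive = the rest.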
Assay Endpoint: inhibition

1) CC1(C)O[C@@H]2C[C@H]3[C@@H]4C[C@H](F)C5=CC(=O)C=C[C@]5(C)[C@@]4(F)[C@@H](O)C[C@]3(C)[C@]2(C(=O)CO)O1 ... 27.1% (inactive)
2) CC(=O)O[C@]1(C(C)=O)CC[C@H]2[C@@H]3C=C(Cl)C4=CC(=O)CC[C@]4(C)[C@H]3CC[C@@]21C ... 5.79% (inactive)
3) CC1(c2cnc(Nc3ccccc3)s2)CCC(=O)O1 (stereo not given) ... 24.7% (inactive)
4) CC(=O)Nc1c(I)c(NC(C)=O)c(I)c(C(=O)O)c1I ... 11.3% (inactive)
5) CCC(=O)O[C@]1(C(=O)CCl)[C@@H](C)C[C@H]2[C@@H]3CCC4=CC(=O)C=C[C@]4(C)[C@@]3(F)[C@@H](O)C[C@@]21C ... 3.45% (inactive)
6) CCc1nc(N)nc(N)c1-c1ccc(Cl)cc1 ... 12.4% (inactive)
7) Oc1oc(-c2ccccc2)nc1C=NCc1ccncc1 ... 13.2% (inactive)
8) CCCOc1ccc2nc(NC(=O)OC)[nH]c2c1 ... 1.48% (inactive)
9) Nc1nc2c(ncn2COCCO)c(=O)[nH]1 ... 3.45% (inactive)
10) Oc1c(I)cc(Cl)c2cccnc12 ... 23.4% (inactive)

====

# Procedure Details: inhibitors of TNFa-induced NFkB p65 translocation, primary screen, imaging, HUVEC, MLSMR starter and 10KST1 sets (AID 438);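 note: compound added about 3h40 before a 20 min TNFalpha stimulation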;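 for inhibition: signal is the nuclear over cytoplasmic p65 intensity ratio per well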
# Assay Context: HUVEC TNFa-induced p65 nuclear translocation; at 2 µM, stronger effect = higher value, 0% TNFa-plus-vehicle, 100% no-TNFa wells
The following compounds are shown together with reported inhibition values.
Assay Endpoint: inhibition (%)

1. COc1cc2c(cc1OC)CN(C(=O)COc1ccc(C#N)cc1)CC2 ... -7.5
2. COc1ccccc1-c1cn[nH]c(=S)n1 ... 1.6
3. CCCn1nnnc1SCC(=O)c1ccc2c(c1)OCCO2 ... 2.6
4. COC(=O)c1ccc(CSc2nc3ccccc3c(=O)n2Cc2ccco2)o1 ... 2.6
5. O=c1c2ccccc2c(C=Nc2ccc(Cl)cn2)c(O)n1-c1cc(Cl)ccc1N1CCOCC1 ... 14.4
6. COc1ccc(C2=NOC(C(=O)NCCCN3CCOCC3)C2)cc1 (stereo unspecified) ... 3.5
7. Cc1ccc(S(=O)(=O)N2CCCC2C(=O)OCc2ccco2)cc1 (stereo unspecified) ... -8.4
8. C=C(C)c1cccc(C(C)(C)NC(=O)Nc2ncccn2)c1 ... -4.3
9. O=C(Nc1nncs1)c1ccccc1NS(=O)(=O)c1cccs1 ... 21.9
10. CCc1nc(C)c(-c2ccccc2)c(=O)[nH]1 ... 0.8
11. Cc1cccc(-n2nnc(C(=O)NCc3ccccc3)c2N)c1 ... 2.1
